- Assay overview: Synergistic cytotoxicity against mouse L5178 cells assessed as combination index at ED90 using 75:1 test compound to doxorubicin ratio after 48 hrs by MTT-based checkerboard microplate method
- Format: functional
Experimental endpoint: CI
Lab note: jot down the number only; don't add units.

Note down CI recorded for `CC(C)(O)CC[C@H]1OC(C)(C)O[C@]1(C)[C@H]1CC[C@@]2(O)C3=C/C(=N\OC(C)(C)C)[C@@H]4C[C@H]5OC(C)(C)O[C@H]5C[C@]4(C)[C@H]3CC[C@]12C` 0.8

Give a short answer stating reported CI for `CC(C)(O)CC[C@H]1OC(C)(C)O[C@]1(C)[C@H]1CC=C2C3=C/C(=N\OC(C)(C)C)[C@@H]4C[C@H]5OC(C)(C)O[C@H]5C[C@]4(C)[C@H]3CC[C@@]21C` . 0.83

Read the entry `C=CCO/N=C1\C=C2[C@H](CC[C@]3(C)[C@@H]([C@@]4(C)OC(C)(C)O[C@@H]4CCC(C)(C)O)CC[C@@]23O)[C@@]2(C)C[C@@H]3OC(C)(C)O[C@@H]3C[C@@H]12` and write its reported CI. 1.27
